test: C-7 plasma pharmacokinetics after single oral administration; assay type: in vivo, human; details: human, plasma, oral, 100 mg, Cohort II, C-7 100 mg; individual patients; read-out: Tmax
experimentalReadout: Tmax (h)
Express your answer in h, writing the number without its unit.

Input line: Bench note: what Tmax did CC(C)c1cc2[nH]c(=O)n(NS(C)(=O)=O)c(=O)c2cc1-c1ccnn1C [Compound C-7] show?
Output line: 3

====

assay: C-7 plasma pharmacokinetics after single oral administration; type: in vivo, human; details: human, plasma, oral, 50 mg, Cohort I, C-7 50 mg; individual patients; read-out: Cmax
experimentalReadout: Cmax

Input line: Bench note: what Cmax did CC(C)c1cc2[nH]c(=O)n(NS(C)(=O)=O)c(=O)c2cc1-c1ccnn1C show?
Output line: 1530 ng/mL
